System: T. b. brucei wild strain s427
methodDescription: T. b. brucei s427 bloodstream trypomastigotes, Alamar blue
Assay type: cell-based
appliedConditions: strain s427 of T. b. brucei
measurementKind: pEC50
Quick note: pEC50 values are minus log10 of concentrations in mol/L.

Consider the compound shown here: `O=C(Nc1ccc(N=c2[nH]c3ccccc3[nH]2)c(Cl)c1)c1ccc(N=c2[nH]c3ccccc3[nH]2)cc1Cl` What is its recorded pEC50?
5.58

###

Test system: intracellular amastigotes of L. donovani (strain MHOM/ET/67/HU3)
methodDescription: L. donovani intracellular amastigotes in THP-1-derived macrophages, resazurin method
Type: cell-based
appliedConditions: Leishmania donovani, Macrophage, read-out: EC50 L. donovani intracellular amastigotes
measurementKind: EC50

Consider the molecule shown here: c1ccc2[nH]c(=Nc3ccc(CCc4ccc(N=c5[nH]c6ccccc6[nH]5)cc4)cc3)[nH]c2c1 [Compound 13] What is its recorded EC50?
> 10 µM
